These measurements were taken from ChEMBL document CHEMBL4507328.

target.desc: Sodium-dependent dopamine transporter (Homo sapiens, UniProt Q01959)
Sequence (Q01959 whole entry): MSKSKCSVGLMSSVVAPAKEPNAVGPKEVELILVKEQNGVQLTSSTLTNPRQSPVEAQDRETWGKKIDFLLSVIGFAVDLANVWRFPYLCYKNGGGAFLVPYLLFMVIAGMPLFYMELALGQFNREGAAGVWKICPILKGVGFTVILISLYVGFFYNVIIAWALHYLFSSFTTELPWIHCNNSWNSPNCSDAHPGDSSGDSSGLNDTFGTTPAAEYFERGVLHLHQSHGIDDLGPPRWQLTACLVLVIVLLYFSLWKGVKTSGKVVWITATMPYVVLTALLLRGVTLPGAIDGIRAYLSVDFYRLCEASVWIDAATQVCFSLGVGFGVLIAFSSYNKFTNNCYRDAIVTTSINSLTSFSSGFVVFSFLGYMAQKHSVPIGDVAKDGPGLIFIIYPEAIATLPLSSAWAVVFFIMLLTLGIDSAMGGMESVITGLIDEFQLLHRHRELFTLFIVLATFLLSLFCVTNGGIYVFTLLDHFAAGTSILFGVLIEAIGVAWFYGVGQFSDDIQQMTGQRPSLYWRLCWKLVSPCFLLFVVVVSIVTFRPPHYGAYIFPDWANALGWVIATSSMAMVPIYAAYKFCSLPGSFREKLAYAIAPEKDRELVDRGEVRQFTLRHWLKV
test.method.notes: Inhibition of Transporter, Dopamine (DAT) at compound concentration of 10.0 uM in the Eurofins-Panlabs radioligand binding assay (Eurofins_assay_220320)
Design: ligand concentration 0.15 nM, non-specific ligand with concentration 10 uM Nomifensine, incubation time 3 h, incubation temperature 4 C
measurement.name: pKi
To interpret pKi, take it as minus log10 of a concentration measured in moles per litre.

Tell me the measured pKi of O[C@]1(C(F)(F)F)CCCC[C@H]1Nc1ccc(F)cc1 , please. 6.03

* * *

target.desc: UniProtKB Q01959
test.method.notes: GPCRScan assay: inhibition of DAT
Design: radioligand conc. used [nm] 3.6 – 16.0, parental cells stable HEK
condition.parameters: read-out: Ki
measurement.name: Ki
Note: a bare number is incomplete; add the unit.

Given the entry O[C@]1(C(F)(F)F)CCCC[C@H]1Nc1ccc(F)cc1 , what Ki was observed with UniProtKB Q01959? 1380 nM

* * *

target.desc: Progesterone receptor (Homo sapiens)
Sequence (P06401 whole entry): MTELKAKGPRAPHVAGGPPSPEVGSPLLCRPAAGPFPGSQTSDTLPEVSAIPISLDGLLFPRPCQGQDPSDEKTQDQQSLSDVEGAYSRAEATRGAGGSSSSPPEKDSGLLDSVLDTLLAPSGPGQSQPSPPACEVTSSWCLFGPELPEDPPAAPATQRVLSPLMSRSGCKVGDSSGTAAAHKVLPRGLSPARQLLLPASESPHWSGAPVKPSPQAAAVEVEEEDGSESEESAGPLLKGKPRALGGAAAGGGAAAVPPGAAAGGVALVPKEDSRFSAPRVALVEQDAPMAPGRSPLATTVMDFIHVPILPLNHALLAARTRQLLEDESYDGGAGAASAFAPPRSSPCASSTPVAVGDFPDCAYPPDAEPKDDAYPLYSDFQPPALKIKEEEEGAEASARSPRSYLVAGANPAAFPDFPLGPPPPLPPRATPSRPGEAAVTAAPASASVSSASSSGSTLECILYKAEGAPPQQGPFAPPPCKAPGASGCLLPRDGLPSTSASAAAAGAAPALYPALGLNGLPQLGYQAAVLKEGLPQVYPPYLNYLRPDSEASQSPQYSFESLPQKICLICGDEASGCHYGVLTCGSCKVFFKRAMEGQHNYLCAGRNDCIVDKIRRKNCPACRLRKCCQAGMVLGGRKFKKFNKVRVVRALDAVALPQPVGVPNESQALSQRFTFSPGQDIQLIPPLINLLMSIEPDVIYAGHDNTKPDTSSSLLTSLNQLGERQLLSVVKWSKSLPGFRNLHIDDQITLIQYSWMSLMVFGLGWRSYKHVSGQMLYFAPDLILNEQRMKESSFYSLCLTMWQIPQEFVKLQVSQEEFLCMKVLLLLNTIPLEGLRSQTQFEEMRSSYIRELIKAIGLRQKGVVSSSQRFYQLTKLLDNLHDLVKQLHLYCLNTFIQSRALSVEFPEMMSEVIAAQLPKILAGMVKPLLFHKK
measurement.name: pIC50
To interpret pIC50, take it as minus log10 of a concentration measured in moles per litre.

Tell me the measured pIC50 of O[C@]1(C(F)(F)F)CCCC[C@H]1Nc1ccc(F)cc1 , please. 5.30

* * *

target.desc: Estrogen receptor (Homo sapiens, UniProt P03372)
Sequence (P03372 whole entry): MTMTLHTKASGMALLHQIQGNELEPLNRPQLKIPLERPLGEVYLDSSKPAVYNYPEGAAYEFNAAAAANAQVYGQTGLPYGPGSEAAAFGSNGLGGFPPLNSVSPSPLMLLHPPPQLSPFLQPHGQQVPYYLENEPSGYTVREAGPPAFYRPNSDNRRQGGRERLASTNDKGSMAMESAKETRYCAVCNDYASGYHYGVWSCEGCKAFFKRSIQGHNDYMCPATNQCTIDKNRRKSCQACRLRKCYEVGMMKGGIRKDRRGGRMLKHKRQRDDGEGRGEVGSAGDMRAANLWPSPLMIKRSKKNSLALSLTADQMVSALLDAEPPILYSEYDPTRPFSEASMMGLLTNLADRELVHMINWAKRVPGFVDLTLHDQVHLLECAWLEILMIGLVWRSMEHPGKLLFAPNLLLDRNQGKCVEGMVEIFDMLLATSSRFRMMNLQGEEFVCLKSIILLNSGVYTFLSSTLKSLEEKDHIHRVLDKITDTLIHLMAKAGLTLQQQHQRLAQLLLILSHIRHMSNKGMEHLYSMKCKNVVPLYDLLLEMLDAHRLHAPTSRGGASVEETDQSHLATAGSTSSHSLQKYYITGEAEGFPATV
measurement.name: Ki (nM)
Express the result in nM but write the number alone.

Tell me the measured Ki of O[C@]1(C(F)(F)F)CCCC[C@H]1Nc1ccc(F)cc1 [BAY-390] , please. 720

* * *

target.desc: 5-hydroxytryptamine receptor 2A (Homo sapiens)
Sequence (P28223 whole entry): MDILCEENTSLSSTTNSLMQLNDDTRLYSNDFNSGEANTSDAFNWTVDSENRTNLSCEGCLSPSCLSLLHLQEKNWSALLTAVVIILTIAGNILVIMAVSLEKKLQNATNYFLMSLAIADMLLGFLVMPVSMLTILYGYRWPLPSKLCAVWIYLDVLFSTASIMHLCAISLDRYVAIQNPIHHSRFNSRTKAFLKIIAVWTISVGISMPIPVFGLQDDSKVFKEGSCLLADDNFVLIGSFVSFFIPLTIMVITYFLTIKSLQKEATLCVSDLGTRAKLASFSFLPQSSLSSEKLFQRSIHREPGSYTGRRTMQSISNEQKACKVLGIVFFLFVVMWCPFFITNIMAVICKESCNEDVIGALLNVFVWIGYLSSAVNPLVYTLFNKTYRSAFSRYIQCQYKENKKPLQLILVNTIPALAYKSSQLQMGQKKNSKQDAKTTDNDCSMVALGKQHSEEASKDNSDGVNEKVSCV
measurement.name: pKi
To interpret pKi, take it as minus log10 of a concentration measured in moles per litre.

Given the entry O[C@]1(C(F)(F)F)CCCC[C@H]1Nc1ccc(F)cc1 , what pKi was observed with 5-hydroxytryptamine receptor 2A (Homo sapiens)? 5.59
